Reference for the values: patent US11286268B1

This section presents compounds with their documented pIC50 values.
biological target: recombinant eIF4E (Homo sapiens (Human), UniProt P06730); assay: Fluorescence polarization competition assay for eIF4E binding potency; details: inhibition of eIF4E/EDA-m7GDP-ATTO-550 binding; calculated IC50 values, Table 4B; read-out: IC50
Sequence (P06730 whole entry): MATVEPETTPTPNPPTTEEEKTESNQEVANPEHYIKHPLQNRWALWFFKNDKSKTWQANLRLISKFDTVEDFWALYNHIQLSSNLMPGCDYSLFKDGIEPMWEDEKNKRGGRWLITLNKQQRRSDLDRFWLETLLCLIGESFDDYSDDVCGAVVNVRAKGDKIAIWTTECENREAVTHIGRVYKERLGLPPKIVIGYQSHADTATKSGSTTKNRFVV
pIC50: −log10 of the molar value.
metric: pIC50

INSERT INTO measurements (compound, target_or_test_system, metric, number) VALUES
  ('Cc1nc2cnc(N(C)C3CCN(C(C)(C)C(F)(F)F)CC3)c(C#N)c2c(=O)n1CCOc1ccc(Cl)cc1-c1ccnc2c(C(=O)O)csc12 [compound 1514]', 'recombinant eIF4E (Homo sapiens (Human), UniProt P06730)', 'pIC50', 7.29),
  ('CCN(c1ncc2nc(C)n(CC#Cc3ccc(Cl)cc3-c3ccnc4c(C(=O)O)csc34)c(=O)c2c1C#N)C1CCN([C@H]2C[C@@H](OC(F)(F)F)C2)CC1 [compound 1775]', 'recombinant eIF4E (Homo sapiens (Human), UniProt P06730)', 'pIC50', 7.49),
  ('Cc1cc(-c2cc(Cl)ccc2OCCn2c(=O)c3c(C#N)cc(C(F)(F)F)cc3n(C)c2=O)c2scc(C(=O)O)c2n1 [compound 1975]', 'recombinant eIF4E (Homo sapiens (Human), UniProt P06730)', 'pIC50', 6.96),
  ('N#Cc1cccc2nc(C(F)F)n(CCOc3ccc(Cl)cc3-c3cccc(C(=O)O)c3)c(=O)c12 [compound 1986]', 'recombinant eIF4E (Homo sapiens (Human), UniProt P06730)', 'pIC50', 7.11),
  ('Cc1nc2cnc(N(C)C3CCN(C4CC(F)(F)C4)CC3)c(C#N)c2c(=O)n1CC#Cc1ccc(Cl)cc1-c1ccnc2c(C(=O)NS(=O)(=O)c3cccnc3)csc12 [compound 1831]', 'recombinant eIF4E (Homo sapiens (Human), UniProt P06730)', 'pIC50', 8.30),
  ('Cc1sc2c(-c3cc(Cl)ccc3OCCn3c(C)nc4cc(S(C)(=O)=O)c(N5CCN(C)CC5)c(C#N)c4c3=O)ccnc2c1C(=O)O [compound 1294]', 'recombinant eIF4E (Homo sapiens (Human), UniProt P06730)', 'pIC50', 7.25);

---

target: recombinant eIF4E (Homo sapiens (Human)); assay: Fluorescence polarization competition assay for eIF4E binding potency; settings: inhibition of eIF4E/EDA-m7GDP-ATTO-550 binding; calculated IC50 values, Table 4B; read-out: IC50
The threshold is 10 nM. Values of IC50 beneath it are tagged t; values meeting or exceeding it are tagged f.

INSERT INTO assay_data (chem_smiles, category_label) VALUES
  ('Cc1nc2cnc(C3CCC(F)(F)CC3)c(C#N)c2c(=O)n1CC#Cc1ccc(Cl)cc1-c1ccnc2c(C(=O)O)csc12', 'f'),
  ('CCc1ncc(-c2c(C(F)(F)F)cc3nc(C)n(CCOc4ccc(Cl)cc4-c4cc(C)nc5c(C(=O)O)csc45)c(=O)c3c2C#N)cc1F', 't'),
  ('CCc1cc(-c2cc(Cl)ccc2OCCn2c(C)nc3c(Cl)nc(C4CC4)c(C#N)c3c2=O)c2scc(C(=O)O)c2n1', 'f'),
  ('CCN(c1ncc2nc(C)n(CC#Cc3ccc(Cl)cc3-c3ccnc4c(C(=O)NS(=O)(=O)c5cccnc5)csc34)c(=O)c2c1C#N)C1CCN([C@H]2C[C@@H](OC(F)(F)F)C2)CC1', 'f'),
  ('Cc1cc(-c2cc(Cl)ccc2OCCn2c(C)nc3cc(C(F)(F)F)c(CN4CCSCC4)c(C#N)c3c2=O)c2scc(C(=O)O)c2n1', 'f');
